Tested on: HT-29
Assay Info: Cytotoxicity against human HT29 cells after 48 hrs by SRB assay
Type: functional, cell-based
Recorded Conditions: Homo sapiens, HT-29, 48 h
Listed compounds paired with reported GI50

{"columns": ["Smiles Structure", "GI50"],
 "data": [
  ["C/C=C1\\NC(=O)[C@H](Cc2ccccc2)NC(=O)[C@@H](C(C)C)NC(=O)[C@@H]([C@H](C)CC)NC(=O)[C@H](NC(=O)[C@H](NC(=O)[C@H](CCCN)NC(=O)[C@H]2CCCN2C(=O)[C@H](NC(=O)[C@@H](NC(=O)[C@@H](NC(=O)[C@H](NC(=O)Cc2ccc(C(F)(F)F)cc2)C(C)C)[C@@H](C)O)C(C)C)C(C)C)[C@H](C)CC)[C@H](C)OC(=O)[C@H](C(C)C)NC1=O", "1.68 µM"],
  ["C/C=C1\\NC(=O)[C@H](Cc2ccccc2Cl)NC(=O)[C@@H](C(C)C)NC(=O)[C@@H]([C@H](C)CC)NC(=O)[C@H](NC(=O)[C@H](NC(=O)[C@H](CCCN)NC(=O)[C@H]2CCCN2C(=O)[C@H](NC(=O)[C@@H](NC(=O)[C@@H](NC(=O)[C@H](NC(=O)CCCC(C)C)C(C)C)[C@@H](C)O)C(C)C)C(C)C)[C@H](C)CC)[C@H](C)OC(=O)[C@H](C(C)C)NC1=O", "0.089 µM"],
  ["C/C=C1\\NC(=O)[C@H](Cc2ccccc2)NC(=O)[C@@H](C(C)C)NC(=O)[C@@H]([C@H](C)CC)NC(=O)[C@H](NC(=O)[C@H](NC(=O)[C@H](CCCN)NC(=O)[C@H]2CCCN2C(=O)[C@H](NC(=O)[C@@H](NC(=O)[C@@H](NC(=O)[C@H](NC(=O)CC[C@@H](C)[C@H]2CC[C@H]3[C@@H]4CC[C@@H]5C[C@H](OC(=O)C(F)(F)F)CC[C@]5(C)[C@H]4CC[C@]23C)C(C)C)[C@@H](C)O)C(C)C)C(C)C)[C@H](C)CC)[C@H](C)OC(=O)[C@H](C(C)C)NC1=O", "0.387 µM"],
  ["C/C=C1\\NC(=O)[C@H](Cc2ccccc2)NC(=O)[C@@H](C(C)C)NC(=O)[C@@H]([C@H](C)CC)NC(=O)[C@H](NC(=O)[C@H](NC(=O)[C@H](CCCN)NC(=O)[C@H]2CCCN2C(=O)[C@H](NC(=O)[C@@H](NC(=O)[C@@H](NC(=O)[C@H](NC(=O)CC(C)C)C(C)C)[C@@H](C)O)C(C)C)C(C)C)[C@H](C)CC)[C@H](C)OC(=O)[C@H](C(C)C)NC1=O", "2.98 µM"]
]}

###

Tested on: A549
Assay Info: Cytotoxicity against human A549 cells after 48 hrs by SRB assay
Type: functional, cell-based
Recorded Conditions: Homo sapiens, A549, 48 h
Quantity: LC50 (nM)

{"columns": ["Smiles Structure", "Quantity", "Test Result"],
 "data": [
  ["C/C=C1\\NC(=O)[C@H](Cc2ccccc2)NC(=O)[C@@H](C(C)C)NC(=O)[C@@H](C(C)C)NC(=O)[C@H](NC(=O)[C@H](NC(=O)[C@H](CCCN)NC(=O)[C@H]2CCCN2C(=O)[C@H](NC(=O)[C@@H](NC(=O)[C@@H](NC(=O)[C@H](NC(=O)CCCC(C)C)C(C)C)[C@@H](C)O)C(C)C)C(C)C)C(C)C)[C@H](C)OC(=O)[C@H](C(C)C)NC1=O", "LC50", 2000],
  ["C/C=C1\\NC(=O)[C@H](Cc2ccccc2)NC(=O)[C@@H](C(C)C)NC(=O)[C@@H]([C@H](C)CC)NC(=O)[C@H](NC(=O)[C@H](NC(=O)[C@H](CCCN)NC(=O)[C@H]2CCCN2C(=O)[C@H](NC(=O)[C@@H](NC(=O)[C@@H](NC(=O)[C@H](NC(=O)CC(C)C)C(C)C)[C@@H](C)O)C(C)C)C(C)C)[C@H](C)CC)[C@H](C)OC(=O)[C@H](C(C)C)NC1=O", "LC50", 1710],
  ["C/C=C1\\NC(=O)[C@H](Cc2ccccc2)NC(=O)[C@@H](C(C)C)NC(=O)[C@@H]([C@H](C)CC)NC(=O)[C@H](NC(=O)[C@H](NC(=O)[C@H](CCCN)NC(=O)[C@H]2CCCN2C(=O)[C@H](NC(=O)[C@@H](NC(=O)[C@@H](NC(=O)[C@@H](CC2CCCCC2)NC(=O)CCCC(C)C)[C@@H](C)O)C(C)C)C(C)C)[C@H](C)CC)[C@H](C)OC(=O)[C@H](C(C)C)NC1=O", "LC50", 1770],
  ["C/C=C1\\NC(=O)[C@H](Cc2ccccc2)NC(=O)[C@@H](C(C)C)NC(=O)[C@@H]([C@H](C)CC)NC(=O)[C@H](NC(=O)[C@H](NC(=O)[C@H](CCCNC(=O)c2cc(F)c(F)c(F)c2F)NC(=O)[C@H]2CCCN2C(=O)[C@H](NC(=O)[C@@H](NC(=O)[C@@H](NC(=O)[C@H](NC(=O)CCCC(C)C)C(C)C)[C@@H](C)O)C(C)C)C(C)C)[C@H](C)CC)[C@H](C)OC(=O)[C@H](C(C)C)NC1=O", "LC50", 1040],
  ["C/C=C1\\NC(=O)[C@H](Cc2ccccc2)NC(=O)[C@@H](C(C)C)NC(=O)[C@@H]([C@H](C)CC)NC(=O)[C@H](NC(=O)[C@H](NC(=O)[C@H](CCCN)NC(=O)[C@@H]2CC[C@H](c3ccccc3)N2C(=O)[C@H](NC(=O)[C@@H](NC(=O)[C@@H](NC(=O)[C@H](NC(=O)CC[C@@H](C)CC)C(C)C)[C@@H](C)O)C(C)C)C(C)C)[C@H](C)CC)[C@H](C)OC(=O)[C@H](C(C)C)NC1=O", "LC50", 6440]
]}

###

Tested on: LoVo
Assay Info: Cytotoxicity against human doxorubicin resistant LoVo cells after 48 hrs by SRB assay
Format: functional
Listed compounds paired with reported GI50
Quantity: GI50

{"columns": ["Smiles Structure", "Assayed Target", "Quantity", "Test Result"],
 "data": [
  ["C/C=C1\\NC(=O)[C@H](Cc2ccc(O)cc2)NC(=O)[C@@H](C(C)C)NC(=O)[C@@H]([C@H](C)CC)NC(=O)[C@H](NC(=O)[C@H](NC(=O)[C@H](CCCN)NC(=O)[C@H]2CCCN2C(=O)[C@H](NC(=O)[C@@H](NC(=O)[C@@H](NC(=O)[C@H](NC(=O)CC[C@@H](C)CC)C(C)C)[C@@H](C)O)C(C)C)C(C)C)[C@H](C)CC)[C@H](C)OC(=O)[C@H](C(C)C)NC1=O", "LoVo", "GI50", "1030 nM"],
  ["C/C=C1\\NC(=O)[C@H](Cc2ccccc2)NC(=O)[C@@H](C(C)C)NC(=O)[C@@H]([C@H](C)CC)NC(=O)[C@H](NC(=O)[C@H](NC(=O)[C@H](CCCNC(=O)C(F)(F)F)NC(=O)[C@H]2CCCN2C(=O)[C@H](NC(=O)[C@@H](NC(=O)[C@@H](NC(=O)[C@H](NC(=O)CC[C@@H](C)CC)C(C)C)[C@@H](C)O)C(C)C)C(C)C)[C@H](C)CC)[C@H](C)OC(=O)[C@H](C(C)C)NC1=O", "LoVo", "GI50", "276 nM"]
]}

###

Listed compounds paired with reported GI50
System: K562
Assay Info: Cytotoxicity against human K562 cells after 48 hrs by SRB assay
Type: functional
Recorded Conditions: K562, 48 h

{"columns": ["Smiles Structure", "GI50"],
 "data": [
  ["C/C=C1\\NC(=O)[C@H](Cc2ccccc2)NC(=O)[C@@H](C(C)C)NC(=O)[C@@H]([C@H](C)CC)NC(=O)[C@H](NC(=O)[C@H](NC(=O)[C@H](CCCN)NC(=O)[C@H]2CCCN2C(=O)[C@H](NC(=O)[C@@H](NC(=O)[C@@H](NC(=O)[C@H](NC(=O)CCCC(C)C)C(C)C)C(C)C)C(C)C)C(C)C)[C@H](C)CC)[C@H](C)OC(=O)[C@H](C(C)C)NC1=O", "0.718 µM"],
  ["C/C=C1\\NC(=O)[C@H](Cc2ccccc2)NC(=O)[C@@H](C(C)C)NC(=O)[C@@H]([C@H](C)CC)NC(=O)[C@H](NC(=O)[C@H](NC(=O)[C@H](CCCN)NC(=O)[C@H]2CCCN2C(=O)[C@H](NC(=O)[C@@H](NC(=O)[C@H](Cc2ccccc2)NC(=O)[C@H](NC(=O)CCCC(C)C)C(C)C)C(C)C)C(C)C)[C@H](C)CC)[C@H](C)OC(=O)[C@H](C(C)C)NC1=O", "0.0232 µM"],
  ["C/C=C1\\NC(=O)[C@H](Cc2ccccc2)NC(=O)[C@@H](CCC2CCCCC2)NC(=O)[C@@H](CCC2CCCCC2)NC(=O)[C@H](NC(=O)[C@@H](CCC2CCCCC2)NC(=O)[C@H](CCCN)NC(=O)[C@H]2CCCN2C(=O)[C@H](NC(=O)[C@@H](NC(=O)[C@@H](NC(=O)[C@H](NC(=O)CCCC(C)C)C(C)C)[C@@H](C)O)C(C)C)C(C)C)[C@H](C)OC(=O)[C@H](C(C)C)NC1=O", "0.363 µM"]
]}
